# study target: Perilipin-5 (Homo sapiens) + 1-acylglycerol-3-phosphate O-acyltransferase ABHD5 (Homo sapiens) (UniProt Q00G26+Q8WTS1)
# Sequence (Q00G26 whole entry, looked up): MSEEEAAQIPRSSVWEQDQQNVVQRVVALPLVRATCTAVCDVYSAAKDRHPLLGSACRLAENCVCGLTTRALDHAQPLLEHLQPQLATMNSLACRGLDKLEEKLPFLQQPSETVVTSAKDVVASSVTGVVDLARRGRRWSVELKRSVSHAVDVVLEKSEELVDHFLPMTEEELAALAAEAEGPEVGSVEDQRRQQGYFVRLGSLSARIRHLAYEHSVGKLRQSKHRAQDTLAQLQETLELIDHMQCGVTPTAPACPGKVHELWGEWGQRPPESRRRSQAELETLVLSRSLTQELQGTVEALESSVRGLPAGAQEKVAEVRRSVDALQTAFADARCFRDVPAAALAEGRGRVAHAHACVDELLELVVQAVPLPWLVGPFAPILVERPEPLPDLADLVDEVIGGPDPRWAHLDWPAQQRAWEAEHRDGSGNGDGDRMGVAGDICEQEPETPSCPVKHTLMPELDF
# Sequence (Q8WTS1 whole entry, looked up): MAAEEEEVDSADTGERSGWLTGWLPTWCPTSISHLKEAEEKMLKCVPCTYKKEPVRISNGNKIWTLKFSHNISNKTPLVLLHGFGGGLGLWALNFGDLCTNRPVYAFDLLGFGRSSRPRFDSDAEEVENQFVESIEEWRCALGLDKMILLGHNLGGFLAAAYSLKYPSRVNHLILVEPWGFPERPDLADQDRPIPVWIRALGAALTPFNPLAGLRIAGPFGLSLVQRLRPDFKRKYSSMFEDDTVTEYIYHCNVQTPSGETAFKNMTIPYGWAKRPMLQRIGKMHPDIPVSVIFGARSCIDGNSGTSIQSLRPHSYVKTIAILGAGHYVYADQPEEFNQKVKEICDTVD
# protocol notes: ABHD5-PLIN5 binding inhibitors, late-stage follow-up, biochemical, luminescence, dose response, round 2 (AID 652124)
# applied conditions: biochemical ABHD5-PLIN5 interaction
Activity calls are given as the source filed them. The rule behind the calls is not given here.
observation type: IC50

// solved cases for IC50 follow
In [3]: df
Out[3]:
                                test_smiles  observation_type       endpoint_result
0  CN1C(=O)c2ccccc2Sc2ccc(NC(=O)NCCc3ccccc3)cc21              IC50                3.7 µM
1  CCCCCCCNC(=O)Nc1ccc2c(c1)Sc1ccccc1C(=O)N2C              IC50              inactive
2  CCCNC(=O)Nc1ccc2c(c1)N(CC)C(=O)c1ccccc1S2              IC50              inactive
3  CCc1ccc2c(CC(=O)N3CCN(S(=O)(=O)c4ccc5c(c4)OCCO5)CC3)coc2c1              IC50               3.88 µM
4  CC(C)N1C(=O)c2ccccc2Oc2ccc(NC(=O)c3ccccc3)cc21              IC50  > 39.8 µM (inactive)
5  O=C(CCc1nc2ccccc2s1)N1CCN(S(=O)(=O)c2ccc3c(c2)OCCO3)CC1              IC50  > 39.8 µM (inactive)
6  Cc1ccc(CS(=O)(=O)c2ncc(Cl)c(C(=O)Nc3cccc(C(F)(F)F)c3)n2)cc1              IC50               1.76 µM
7  CCCCCNC(=O)Nc1ccc2c(c1)Sc1ccccc1C(=O)N2C              IC50  > 39.8 µM (inactive)

[ask] Consider the compound shown here: CCCC(=O)Nc1ccc2c(c1)C(=O)N(C)c1ccccc1O2 What is its recorded IC50?
[reply] > 39.8 µM (inactive)

[ask] Consider the compound shown here: Cc1ccc2cc(CC(=O)N3CCN(S(=O)(=O)c4ccc5c(c4)OCCO5)CC3)oc2c1 What is its recorded IC50?
[reply] inactive

[ask] Consider the compound shown here: CS(=O)(=O)c1ncc(Cl)c(C(=O)Nc2ccc(C(F)(F)F)cc2)n1 What is its recorded IC50?
[reply] 1.45 µM

[ask] Consider the compound shown here: O=C(CCn1cnc2ccccc21)N1CCN(S(=O)(=O)c2ccc3c(c2)OCCO3)CC1 What is its recorded IC50?
[reply] > 39.8 µM (inactive)
